Would you kindly list IC50 for each of these compounds?
Target: human M1 receptor (Homo sapiens)
Sequence (P11229 1-460): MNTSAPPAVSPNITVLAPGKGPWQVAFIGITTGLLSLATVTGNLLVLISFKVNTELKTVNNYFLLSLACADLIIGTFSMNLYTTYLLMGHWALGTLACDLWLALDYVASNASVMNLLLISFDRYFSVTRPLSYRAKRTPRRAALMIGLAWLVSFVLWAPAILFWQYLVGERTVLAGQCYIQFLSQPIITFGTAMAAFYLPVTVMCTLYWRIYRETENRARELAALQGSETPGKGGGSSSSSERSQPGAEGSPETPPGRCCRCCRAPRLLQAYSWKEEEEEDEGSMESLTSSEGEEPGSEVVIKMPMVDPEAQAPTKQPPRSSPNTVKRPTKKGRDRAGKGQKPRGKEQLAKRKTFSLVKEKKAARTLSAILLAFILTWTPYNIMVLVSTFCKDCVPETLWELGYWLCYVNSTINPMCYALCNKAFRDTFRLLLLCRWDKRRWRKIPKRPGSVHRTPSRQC
Assay: In vitro functional assay of muscarinic acetylcholine receptor activity (aequorin calcium flux, antagonist mode vs EC80 acetylcholine), M1
Assay type: cell-based
Settings: CHO-K1 cells stably expressing human M1 receptor with Aequorin; decrease in EC80 acetylcholine response; read-out: M1 IC50

Recorded IC50, per entry:
C[C@H]1CN(c2ccn3nccc3c2)CCN1C(=O)CCS(=O)(=O)c1cccc2ncsc12 [Example 113]    1 to 10 µM
Cc1cc(F)cnc1N1CCN(C(=O)CNCc2cccc3ncsc23)[C@@H](C)C1 [Example 89]    1 to 10 µM
O=C(COCc1cccc2ncsc12)N1C[C@H]2CC[C@@H](C1)N2c1ccncc1F [Example 86]    1 to 10 µM
O=C([C@H]1C[C@H](Oc2cccc3ncsc23)C1)N1CC2CCC(C1)N2c1ccc(F)cn1 [Example 63]    1 to 10 µM

The following compounds each have a reported value; give each one's IC50.
1. Cc1cc(F)cnc1N1CCN(C(=O)CCCc2cccc3ncc(CO)cc23)[C@@H](C)C1 [Example 94]
2. C[C@H]1CN(c2ncc(F)cc2F)CCN1C(=O)CCCc1cccc2ncccc12 [Example 91]

["0.1 to 1 µM", "0.1 to 1 µM"]
